- protocol.details: NCI Yeast Anticancer Drug Screen. Data for the cln2 rad14 strain (AID 165)
- experimental.context: S. cerevisiae cln2 rad14 strain, at 50.0 µM (retest, dose inferred, filed as 5.0), stronger effect = higher value
The panel holds about 79,000 compounds, 15% with a hit somewhere; the sample as a whole holds those more often.
Rule: fulfilled for growth inhibition not less than 60%, not fulfilled for anything less.

O=C1OCC/C1=C1/CCOC1    fulfilled

QUERY: Exam item: decide whether the reported growth inhibition for CCC[CH2][Sn]([S][Sn]([CH2]CCC)([c]1ccccc1)[c]1ccccc1)([c]1ccccc1)[c]1ccccc1 is at least 60%.
RESULT: fulfilled

QUERY: Evaluate COC(=O)C(=C(c1ccccc1)c1ccccc1)c1ccccc1 : growth inhibition at minimum 60%?
RESULT: not fulfilled

QUERY: Has Cc1cc(Cl)nc2ccc(Cc3ccc4nc(Cl)cc(C)c4c3)cc12 a recorded growth inhibition greater than or equal to 60%?
RESULT: not fulfilled

QUERY: Hello, I need to know if O=C(O)c1ccc(NC(c2ccccc2)c2ccc3cccnc3c2O)cc1 (configuration not stated) has measured growth inhibition not below 60%. Thanks!
RESULT: fulfilled

QUERY: Reported growth inhibition at or above 60%? O=C1CN(c2cccc(Cl)c2)C(=O)CN1/N=C/c1ccc[nH]1
RESULT: not fulfilled
